Data provenance: PubChem BioAssay

# protocol_description: sensitizers of A549 cells to miR-34 induction, primary screen, imaging, A549 dox-inducible miR-34, nuclei and caspase counts (AID 1347080)
# condition_context: A549 miR-34 inducible, Hoechst nuclei count, 48 h; measured here: relative caspase fold change +Dox/-Dox
measured_property: fold change
Just the number.

Form: compound = CC(=O)OCC(=O)[C@@]1(O)CCC2C3CCC4=CC(=O)CC[C@]4(C)C3[C@@H](O)C[C@@]21C (stereo not given in full) ; fold change = 1.6

Form: compound = COc1cc(C(=O)NCCCCCC(=O)O)cc(OC)c1OC ; fold change = 7.04

Form: compound = O=C(O)c1cc2cc(F)ccc2[nH]1 ; fold change = 1.52

Form: compound = O=C1CC[C@@H](C(=O)O)N1 ; fold change = 0.936

Form: compound = CCS(=O)(=O)Nc1ccc2[nH]c(O)c(C(=Nc3ccc(CN4CCCCC4)cc3)c3ccccc3)c2c1 ; fold change = 0.435

Form: compound = COc1ccc(-c2cc(=S)ss2)cc1 ; fold change = 1.14

Form: compound = CCOC(=O)CCC(=O)O[C@H]1[C@H](O[C@@H]2[C@@H](C)[C@H](O[C@H]3C[C@@](C)(OC)[C@@H](O)[C@H](C)O3)[C@@H](C)C(=O)O[C@H](CC)[C@@](C)(O)[C@H](O)[C@@H](C)C(=O)[C@H](C)C[C@@]2(C)O)O[C@H](C)C[C@@H]1N(C)C ; fold change = 1.05

Form: compound = C1CNCCN1 ; fold change = 2.06

Form: compound = COc1cc(NS(C)(=O)=O)ccc1Nc1c2ccccc2nc2ccccc12 ; fold change = 1.94

Form: compound = COc1ccccc1O ; fold change = 1.02

Form: compound = O=C(NCC1CN(c2ccc(N3CCOCC3=O)cc2)C(=O)O1)c1ccc(Cl)s1 (stereo not given) ; fold change = 0.417

Form: compound = CC(=O)N[C@@H](CC(C)C)C(=O)O ; fold change = 1.09

Form: compound = COc1cc2c(c(OC)c1OC)-c1ccc(OC)c(=O)cc1C(NC(C)=O)CC2 (stereo not given) ; fold change = 1.26

Form: compound = CC(=O)N[C@@H](Cc1ccccc1)C(=O)O ; fold change = 1.14

Form: compound = O=C1c2ccccc2C(=O)C1c1ccc(Br)cc1 ; fold change = 3.92

Form: compound = C=Cc1c(C)/c2[n-]/c1=C\c1[n-]c(c(CC)c1C)/C=c1\[n-]c3c(c1C)C(=O)C(C(=O)[O-])C=3c1[n-]c(c(C)c1CCC(=O)[O-])\C=2.[Cu].[Na+].[Na+] (stereo not given) ; fold change = 2.82

Form: compound = C=CC1=C(C(=O)O)N2C(=O)[C@@H](NC(=O)/C(=N\O)c3csc(N)n3)[C@H]2SC1 (stereo in doubt) ; fold change = 4.11

Form: compound = C=CCc1cc(OC)c(O)c(C(=O)NCCO)c1 ; fold change = 0.662

Form: compound = Cc1occc(=O)c1O ; fold change = 0.534

Form: compound = C=C(C)[C@@H]1CC[C@]2(CO)CC[C@]3(C)[C@H](CC[C@@H]4[C@@]5(C)CC[C@H](O)C(C)(C)[C@@H]5CC[C@]43C)[C@@H]12 ; fold change = 0.65

###

# protocol_description: glucagon-like peptide 1 release enhancers, primary assay, NCI-H716 cell line, NPC library (AID 1117341); also: reference of the scale not given here
# condition_context: NCI-H716 cells, at 10 µM, stronger effect = higher value
Give GLP1 secretion stimulation for every item shown.
All answers are understood in %, so give the number only.

Form: compound = O=C1CC[C@@H](C(=O)O)N1 ; GLP1 secretion stimulation = -0.7

Form: compound = O=C1c2ccccc2S(=O)(=O)N1CCCCN1CCN(c2ncccn2)CC1 ; GLP1 secretion stimulation = -1.9

Form: compound = COc1cccc(N(C)C(=S)Oc2ccc3c(c2)CCCC3)n1 ; GLP1 secretion stimulation = -2.3

Form: compound = CN/C(=C\[N+](=O)[O-])NCCSCc1ccc(CN(C)C)o1 ; GLP1 secretion stimulation = -1.4

Form: compound = COc1cc(O)c(C(=O)c2ccccc2)cc1S(=O)(=O)O ; GLP1 secretion stimulation = -0.7

Form: compound = CCN[C@H]1C[C@H](C)S(=O)(=O)c2sc(S(N)(=O)=O)cc21 ; GLP1 secretion stimulation = 2.1

Form: compound = O=S(=O)(O)c1cc(I)c(O)c2ncccc12 ; GLP1 secretion stimulation = -2.6

Form: compound = CC(S)C(=O)NCC(=O)O (configuration not stated) ; GLP1 secretion stimulation = -1.7

Form: compound = COc1c2occc2cc2ccc(=O)oc12 ; GLP1 secretion stimulation = 2

Form: compound = COc1ccc2[nH]c(S(=O)Cc3ncc(C)c(OC)c3C)nc2n1 (configuration not stated) ; GLP1 secretion stimulation = 4.6

Form: compound = C[N+]1(C)CCC(OC(=O)C(O)(c2ccccc2)C2CCCC2)C1 (configuration not stated) ; GLP1 secretion stimulation = -0.5

Form: compound = CC1(C)CCC(C)(C)c2cc(NC(=O)c3ccc(C(=O)O)cc3)ccc21 ; GLP1 secretion stimulation = 4
